These entries and their values trace back to patent US20150018301A1.

experimental_system: LRRK1 WT (Homo sapiens, UniProt Q38SD2)
Sequence (Q38SD2 whole entry): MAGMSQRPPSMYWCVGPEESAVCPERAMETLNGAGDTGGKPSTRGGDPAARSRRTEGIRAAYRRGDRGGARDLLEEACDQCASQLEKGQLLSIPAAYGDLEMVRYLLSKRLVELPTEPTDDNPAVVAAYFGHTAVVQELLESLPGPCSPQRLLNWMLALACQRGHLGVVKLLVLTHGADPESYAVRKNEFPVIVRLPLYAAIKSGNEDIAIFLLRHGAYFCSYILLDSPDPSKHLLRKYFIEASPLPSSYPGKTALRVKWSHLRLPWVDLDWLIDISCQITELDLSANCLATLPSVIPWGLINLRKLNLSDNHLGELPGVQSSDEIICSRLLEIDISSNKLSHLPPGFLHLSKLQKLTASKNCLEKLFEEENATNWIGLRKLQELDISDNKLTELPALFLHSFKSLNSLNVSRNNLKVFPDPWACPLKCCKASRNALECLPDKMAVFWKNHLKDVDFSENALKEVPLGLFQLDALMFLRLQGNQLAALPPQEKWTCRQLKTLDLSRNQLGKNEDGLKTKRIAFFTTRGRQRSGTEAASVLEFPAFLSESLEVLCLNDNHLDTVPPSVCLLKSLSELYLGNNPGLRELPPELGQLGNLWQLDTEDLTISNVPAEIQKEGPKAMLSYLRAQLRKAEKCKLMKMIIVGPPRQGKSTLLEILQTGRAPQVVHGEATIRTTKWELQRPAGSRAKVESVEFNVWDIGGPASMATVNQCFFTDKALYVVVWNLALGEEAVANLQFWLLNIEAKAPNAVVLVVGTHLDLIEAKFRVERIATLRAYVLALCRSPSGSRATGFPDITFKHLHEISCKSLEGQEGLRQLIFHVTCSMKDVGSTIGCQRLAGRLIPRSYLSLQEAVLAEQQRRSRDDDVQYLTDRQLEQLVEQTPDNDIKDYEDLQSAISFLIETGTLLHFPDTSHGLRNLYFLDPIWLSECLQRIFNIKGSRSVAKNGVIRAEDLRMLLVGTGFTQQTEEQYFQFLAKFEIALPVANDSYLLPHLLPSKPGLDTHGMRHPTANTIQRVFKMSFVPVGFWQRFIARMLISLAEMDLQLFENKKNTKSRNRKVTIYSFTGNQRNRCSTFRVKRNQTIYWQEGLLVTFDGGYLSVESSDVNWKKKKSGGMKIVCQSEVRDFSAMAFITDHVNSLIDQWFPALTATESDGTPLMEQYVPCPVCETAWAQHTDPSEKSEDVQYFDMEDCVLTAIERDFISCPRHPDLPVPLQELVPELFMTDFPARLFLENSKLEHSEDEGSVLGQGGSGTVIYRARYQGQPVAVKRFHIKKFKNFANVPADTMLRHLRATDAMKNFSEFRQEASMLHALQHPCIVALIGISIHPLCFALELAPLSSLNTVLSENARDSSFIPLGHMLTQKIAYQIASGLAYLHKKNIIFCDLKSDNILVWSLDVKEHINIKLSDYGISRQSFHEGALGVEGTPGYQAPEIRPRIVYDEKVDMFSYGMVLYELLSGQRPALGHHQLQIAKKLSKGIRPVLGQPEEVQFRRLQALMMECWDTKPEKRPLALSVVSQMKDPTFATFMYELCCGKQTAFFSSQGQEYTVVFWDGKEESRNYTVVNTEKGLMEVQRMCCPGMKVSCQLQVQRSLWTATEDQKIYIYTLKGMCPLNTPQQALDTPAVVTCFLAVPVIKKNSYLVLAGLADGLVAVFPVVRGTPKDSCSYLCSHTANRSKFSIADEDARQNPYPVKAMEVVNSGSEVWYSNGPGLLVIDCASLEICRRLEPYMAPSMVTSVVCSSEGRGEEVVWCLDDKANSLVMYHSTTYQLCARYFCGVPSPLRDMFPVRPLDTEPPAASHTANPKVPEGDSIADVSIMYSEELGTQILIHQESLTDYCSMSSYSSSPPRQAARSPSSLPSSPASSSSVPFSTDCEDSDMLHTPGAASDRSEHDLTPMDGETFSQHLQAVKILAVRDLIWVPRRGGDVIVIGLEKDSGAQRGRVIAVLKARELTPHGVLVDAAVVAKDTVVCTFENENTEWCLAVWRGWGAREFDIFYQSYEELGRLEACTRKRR
method: In vitro kinase assay: LRRK1-mediated MBP phosphorylation
Type: biochemical
assay_setup: Table 3; mean of three experiments
readout_kind: IC50 (µM)

1. O=C1Nc2ccc(I)cc2/C1=C/c1cc(Br)c(O)c(Br)c1 [Inhibitor 56, GW5074]	3.25
2. CNC(=O)c1cc(Oc2ccc(NC(=O)Nc3ccc(Cl)c(C(F)(F)F)c3)cc2)ccn1 [Sorafenib]	13.8
3. O=C1Nc2ccccc2/C1=C1/Nc2ccccc2/C1=N\O [Inhibitor 70, Indirubin-3-monooxine]	3.1

----------
Measured pIC50 values are reported for all entries that follow.
experimental_system: LRRK2 WT (Homo sapiens)
method: In vitro kinase assay: LRRK2-mediated MBP phosphorylation
Format: biochemical
assay_setup: Table 2; mean of three experiments
pIC50: −log10 of the molar value.
readout_kind: pIC50

1) Nc1ncnc2c1c(I)cn2[C@@H]1O[C@H](CO)[C@@H](O)[C@H]1O [Inhibitor 49, 5-iodo-tubercidin, reference compound]	4.83
2) COc1c(C=O)c(O)cc2c1C(=O)c1ccccc1C2=O [Inhibitor 22, Damnacanthal, reference compound]	5.11
3) O=C1Nc2ccccc2/C1=C1/Nc2ccccc2/C1=N\O	5.32

----------
experimental_system: LRRK2 WT (Homo sapiens, UniProt Q5S007)
Sequence (Q5S007 whole entry): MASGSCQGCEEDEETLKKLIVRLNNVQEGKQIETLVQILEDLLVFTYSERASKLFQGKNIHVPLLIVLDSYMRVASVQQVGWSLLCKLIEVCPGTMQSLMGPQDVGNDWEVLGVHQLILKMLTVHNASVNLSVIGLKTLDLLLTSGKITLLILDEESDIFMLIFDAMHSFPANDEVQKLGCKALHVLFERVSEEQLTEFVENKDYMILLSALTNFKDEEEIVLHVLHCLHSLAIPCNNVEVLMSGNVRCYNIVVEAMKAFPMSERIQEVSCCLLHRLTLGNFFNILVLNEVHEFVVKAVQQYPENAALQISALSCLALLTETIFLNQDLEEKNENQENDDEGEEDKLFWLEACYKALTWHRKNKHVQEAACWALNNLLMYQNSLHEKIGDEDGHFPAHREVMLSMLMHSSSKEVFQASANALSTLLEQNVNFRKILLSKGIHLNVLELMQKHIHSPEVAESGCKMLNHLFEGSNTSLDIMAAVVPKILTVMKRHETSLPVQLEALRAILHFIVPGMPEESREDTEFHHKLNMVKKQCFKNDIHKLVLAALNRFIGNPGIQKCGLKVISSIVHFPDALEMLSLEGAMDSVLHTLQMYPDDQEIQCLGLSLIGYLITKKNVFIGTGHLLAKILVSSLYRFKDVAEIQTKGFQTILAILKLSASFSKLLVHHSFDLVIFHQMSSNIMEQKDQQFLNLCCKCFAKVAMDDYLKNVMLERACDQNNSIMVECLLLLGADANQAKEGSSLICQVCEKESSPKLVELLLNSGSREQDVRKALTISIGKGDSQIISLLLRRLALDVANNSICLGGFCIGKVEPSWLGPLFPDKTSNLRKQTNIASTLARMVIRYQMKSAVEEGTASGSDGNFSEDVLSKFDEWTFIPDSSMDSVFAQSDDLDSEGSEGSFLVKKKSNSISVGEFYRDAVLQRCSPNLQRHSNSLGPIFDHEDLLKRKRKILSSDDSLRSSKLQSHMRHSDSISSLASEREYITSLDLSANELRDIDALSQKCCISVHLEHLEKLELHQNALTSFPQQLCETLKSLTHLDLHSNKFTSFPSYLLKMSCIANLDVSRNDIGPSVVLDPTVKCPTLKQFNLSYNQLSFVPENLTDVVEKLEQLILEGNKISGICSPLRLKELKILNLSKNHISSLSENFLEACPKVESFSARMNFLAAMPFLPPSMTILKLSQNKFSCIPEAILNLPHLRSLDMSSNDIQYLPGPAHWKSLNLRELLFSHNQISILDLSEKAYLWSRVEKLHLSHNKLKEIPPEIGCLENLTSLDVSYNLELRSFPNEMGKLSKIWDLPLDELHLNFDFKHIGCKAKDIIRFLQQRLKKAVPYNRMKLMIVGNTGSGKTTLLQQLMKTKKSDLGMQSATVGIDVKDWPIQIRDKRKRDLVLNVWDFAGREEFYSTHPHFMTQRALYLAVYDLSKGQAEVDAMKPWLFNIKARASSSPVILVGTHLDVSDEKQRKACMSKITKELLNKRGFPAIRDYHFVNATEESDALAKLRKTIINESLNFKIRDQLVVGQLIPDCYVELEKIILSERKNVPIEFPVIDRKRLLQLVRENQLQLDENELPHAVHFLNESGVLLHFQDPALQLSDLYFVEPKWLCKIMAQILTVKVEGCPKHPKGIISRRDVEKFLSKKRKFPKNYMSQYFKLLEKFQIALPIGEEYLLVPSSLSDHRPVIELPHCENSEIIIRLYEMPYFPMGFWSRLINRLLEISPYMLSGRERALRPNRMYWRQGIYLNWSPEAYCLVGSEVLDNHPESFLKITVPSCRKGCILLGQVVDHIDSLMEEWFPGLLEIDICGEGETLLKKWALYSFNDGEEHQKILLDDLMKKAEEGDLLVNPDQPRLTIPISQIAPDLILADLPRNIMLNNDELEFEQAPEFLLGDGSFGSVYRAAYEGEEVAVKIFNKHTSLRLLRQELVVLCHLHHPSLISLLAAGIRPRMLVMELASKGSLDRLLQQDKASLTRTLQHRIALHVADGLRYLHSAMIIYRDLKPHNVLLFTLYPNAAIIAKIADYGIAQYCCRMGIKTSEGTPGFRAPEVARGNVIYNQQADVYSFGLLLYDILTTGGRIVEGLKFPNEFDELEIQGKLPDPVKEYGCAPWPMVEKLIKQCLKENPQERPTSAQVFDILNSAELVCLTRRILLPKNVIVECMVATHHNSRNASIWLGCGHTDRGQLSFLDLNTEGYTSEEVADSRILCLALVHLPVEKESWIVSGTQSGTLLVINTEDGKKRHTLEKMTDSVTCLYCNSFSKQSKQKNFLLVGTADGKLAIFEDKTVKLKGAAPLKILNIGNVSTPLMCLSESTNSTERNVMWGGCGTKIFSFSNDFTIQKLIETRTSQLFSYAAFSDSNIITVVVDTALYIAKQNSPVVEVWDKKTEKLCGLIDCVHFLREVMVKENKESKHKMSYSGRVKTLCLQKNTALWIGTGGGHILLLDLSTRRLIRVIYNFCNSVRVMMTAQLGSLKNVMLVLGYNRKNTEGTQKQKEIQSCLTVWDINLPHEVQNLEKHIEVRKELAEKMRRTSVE
method: In vitro kinase assay: LRRK2-mediated MBP phosphorylation
Format: biochemical
assay_setup: compound 16 μM; 30° C., 15 min; normalized to absence of compound; mean ± S.E.M. of three experiments
# MBP phosphorylation Average ± SEM per record follows
readout_kind: MBP phosphorylation Average ± SEM

1) CN([C@@H](Cc1ccc(OS(=O)(=O)c2cccc3cnccc23)cc1)C(=O)N1CCN(c2ccccc2)CC1)S(=O)(=O)c1cccc2cnccc12	125.2 ± 68.8 % of control
2) O=S(=O)(c1cccc2cnccc12)N1CCCNCC1	120.4 ± 64.7 % of control
3) O=C(O)c1cc(NCc2cc(O)ccc2O)ccc1O	148.9 ± 71.4 % of control
4) O=c1c(O)c(-c2ccc(O)c(O)c2)oc2cc(O)cc(O)c12 [Inhibitor 62, Quercetin dihydrate]	70.1 ± 40.5 % of control
5) COc1cc(/C=C(\C#N)C(N)=O)cc(CSc2nc3ccccc3s2)c1O	81.5 ± 17.6 % of control
6) O=C1Nc2ccc(I)cc2/C1=C/c1cc(Br)c(O)c(Br)c1	4.7 ± 4.1 % of control
7) N#C/C(=C\c1ccc(O)c(O)c1)C(N)=S	110.5 ± 29.3 % of control
8) N#CC(C#N)=Cc1cc(O)c(O)c([N+](=O)[O-])c1	116.0 ± 9.8 % of control

----------
experimental_system: LRRK1 WT (Homo sapiens, UniProt Q38SD2)
method: In vitro kinase assay: LRRK1 autophosphorylation
Assay type: biochemical
readout_kind: effect on LRRK1 autophosphorylation

1) O=C1Nc2ccccc2/C1=C1/Nc2ccccc2C1=O	no effect
2) Cc1ccc(NC(=O)c2cccc(N(C)C)c2)cc1NC(=O)c1ccc(O)cc1	minimal to no effect
3) COc1ccc(S(=O)(=O)N(CCO)c2ccccc2CN(C)C/C=C/c2ccc(Cl)cc2)cc1	no effect
4) CNC(=O)c1cc(Oc2ccc(NC(=O)Nc3ccc(Cl)c(C(F)(F)F)c3)cc2)ccn1	minimal to no effect

----------
Measured MBP phosphorylation Average ± SEM by item
experimental_system: UniProt:Q5S007
method: In vitro kinase assay: LRRK2-mediated MBP phosphorylation
Format: biochemical
assay_setup: compound 16 μM; 30° C., 15 min; normalized to absence of compound; mean ± S.E.M. of three experiments
readout_kind: MBP phosphorylation Average ± SEM

1. CC(C)c1cc(/C=C(\C#N)C(=O)NCCCc2ccccc2)cc(C(C)C)c1O	101.3 ± 25.3 % of control
2. N#C/C(=C\c1ccc(O)c(O)c1)C(=O)Nc1ccccc1	75.6 ± 56.9 % of control
3. Cl.c1ccc([C@H]2CN3CCSC3=N2)cc1	133.2 ± 17.6 % of control
4. COc1cc2ncc(-c3ccccc3)nc2cc1OC	131.7 ± 34.2 % of control
5. COc1c(C=O)c(O)cc2c1C(=O)c1ccccc1C2=O [Inhibitor 22, Damnacanthal, reference compound]	35.7 ± 10.3 % of control
6. CC(C)(C)c1cc(/C=C(\C#N)C(N)=S)cc(C(C)(C)C)c1O	76.7 ± 4.5 % of control
7. CC(C)CC(NC(=O)[C@H](CCC(=O)O)NC(=O)CNC(=O)c1ccc(/C=C/C(=O)O)cc1)C(N)=O (stereo partly drawn)	124.1 ± 37.2 % of control
8. Oc1ccc(-c2nc(-c3ccc(F)cc3)c(-c3ccncc3)[nH]2)cc1	125.5 ± 52.6 % of control
9. N#CC(C#N)=Cc1ccc(O)cc1	118.2 ± 51.8 % of control
10. Oc1cc(O)cc(/C=C/c2ccc(O)c(O)c2)c1	93.0 ± 17.8 % of control
11. N#CC(C#N)=Cc1cc(O)c(O)c(O)c1	65.9 ± 31.4 % of control
12. COc1ccc(S(=O)(=O)N(CCO)c2ccccc2CN(C)C/C=C/c2ccc(Cl)cc2)cc1	164.7 ± 40.0 % of control
13. CN[C@@H]1C[C@H]2O[C@@](C)([C@@H]1OC)n1c3ccccc3c3c4c(c5c6ccccc6n2c5c31)C(=O)NC4 [Inhibitor 6, Staurosporine, reference compound]	9.2 ± 6.4 % of control
14. Cl.c1ccc(C2CN3CCSC3=N2)cc1 (stereo not drawn)	138.8 ± 33.9 % of control
15. OC[C@@H]1O[C@H](n2cnc3cc(Cl)c(Cl)cc32)[C@@H](O)[C@H]1O	120.8 ± 78.0 % of control
16. C[C@@]12C(=O)OC(=O)[C@]1(C)[C@H]1CC[C@@H]2O1	109.7 ± 22.4 % of control
17. N#CC(C#N)=C(N)/C(C#N)=C/c1cc(O)c(O)c(O)c1	105.1 ± 19.1 % of control
18. CC(C)n1cnc2c(NCc3ccccc3)nc(NCCO)nc21	111.7 ± 69.7 % of control
